assay: Acute toxicity in mice, intraperitoneal; details: mouse, in vivo, ip
outcome measure: LD50 (mg/kg)

{"molecule": "CCC(C(=O)O)C1OC(C(C)C(O)C(C)C(=O)C(CC)C2OC3(C=CC(O)C4(CCC(C)(C5CCC(O)(CC)C(C)O5)O4)O3)C(C)CC2C)C(C)CC1C (stereo not shown)", "unit of measure": "mg/kg", "observed measurement": 7.15}

###

Some compounds, each annotated with its measured pKa.
experiment: Electrometric titration (pKa of titratable group); details: 80% aqueous dimethylformamide
outcome measure: pKa

{"compound": "CCC(C(=O)O)C1OC(C(C)C(O)C(C)C(=O)C(CC)C2OC3(C=CC(O)C4(CCC(C)(C5CCC(O)(CC)C(C)O5)O4)O3)C(C)CC2C)C(C)CC1C (centres unmarked)", "observed measurement": 7.9}
{"compound": "CCC(C(=O)O)C1OC(C(C)C(O)C(C)C(=O)C(CC)C2OC3(C=CC(OC(C)=O)C4(CCC(C)(C5CCC(O)(CC)C(C)O5)O4)O3)C(C)CC2C)C(C)CC1C (centres unmarked)", "observed measurement": 8.5}

###

Tested on: rumen flora
Assay: In vitro rumen fluid incubation, volatile fatty acid production
Set-up: species or system steer
Settings: 1 ppm in rumen fluid, 16 hours at 38° C
Excerpt: As discussed hereinabove, efficiency of carbohydrate utilization in ruminants is increased by treatments which stimulate the animal's rumen flora to produce propionate compounds rather than acetate or butyrate compounds. The efficiency of feed use can be monitored by observing the production and concentration of propionate compounds in the rumen, using the following methods: Rumen fluid is obtained from a steer with a surgically-installed fistula opening into the rumen. […]
Some compounds, each annotated with its measured Ratio of Treated to Control, Total VFA mM/1.
outcome measure: Ratio of Treated to Control, Total VFA mM/1

{"compound": "CCC(C(=O)O)C1OC(C(C)C(O)C(C)C(=O)C(CC)C2OC3(C=CC(O)C4(CCC(C)(C5CCC(O)(CC)C(C)O5)O4)O3)C(C)CC2C)C(C)CC1C (stereo not drawn)", "observed measurement": 1.26}
{"compound": "CCCC(=O)OC1C=CC2(OC(C(CC)C(=O)C(C)C(O)C(C)C3OC(C(CC)C(=O)O)C(C)CC3C)C(C)CC2C)OC12CCC(C)(C1CCC(O)(CC)C(C)O1)O2 (stereo not drawn)", "observed measurement": 1.19}
{"compound": "CCCCCC(=O)OC1C=CC2(OC(C(CC)C(=O)C(C)C(O)C(C)C3OC(C(CC)C(=O)O)C(C)CC3C)C(C)CC2C)OC12CCC(C)(C1CCC(O)(CC)C(C)O1)O2 (stereo not drawn)", "observed measurement": 0.99}
{"compound": "CCC(=O)OC1C=CC2(OC(C(CC)C(=O)C(C)C(O)C(C)C3OC(C(CC)C(=O)O)C(C)CC3C)C(C)CC2C)OC12CCC(C)(C1CCC(O)(CC)C(C)O1)O2 (stereo not drawn)", "observed measurement": 1.25}
{"compound": "CCC(C(=O)O)C1OC(C(C)C(O)C(C)C(=O)C(CC)C2OC3(C=CC(OC(C)=O)C4(CCC(C)(C5CCC(O)(CC)C(C)O5)O4)O3)C(C)CC2C)C(C)CC1C (stereo not drawn)", "observed measurement": 1.04}
{"compound": "CCCCC(=O)OC1C=CC2(OC(C(CC)C(=O)C(C)C(O)C(C)C3OC(C(CC)C(=O)O)C(C)CC3C)C(C)CC2C)OC12CCC(C)(C1CCC(O)(CC)C(C)O1)O2 (stereo not drawn)", "observed measurement": 1.18}

###

tested on: rumen flora; assay: In vitro rumen fluid incubation, volatile fatty acid production; design: species or system steer; conditions: 1 ppm in rumen fluid, 16 hours at 38° C
Some molecules, each annotated with its measured Ratio of Treated to Control, Molar % butyrate.
outcome measure: Ratio of Treated to Control, Molar % butyrate

{"molecule": "CCC(C(=O)O)C1OC(C(C)C(O)C(C)C(=O)C(CC)C2OC3(C=CC(O)C4(CCC(C)(C5CCC(O)(CC)C(C)O5)O4)O3)C(C)CC2C)C(C)CC1C (stereo not drawn)", "observed measurement": 0.87}
{"molecule": "CCCC(=O)OC1C=CC2(OC(C(CC)C(=O)C(C)C(O)C(C)C3OC(C(CC)C(=O)O)C(C)CC3C)C(C)CC2C)OC12CCC(C)(C1CCC(O)(CC)C(C)O1)O2 (stereo not drawn)", "observed measurement": 0.81}
{"molecule": "CCC(=O)OC1C=CC2(OC(C(CC)C(=O)C(C)C(O)C(C)C3OC(C(CC)C(=O)O)C(C)CC3C)C(C)CC2C)OC12CCC(C)(C1CCC(O)(CC)C(C)O1)O2 (stereo not drawn)", "observed measurement": 0.68}
{"molecule": "CCCCC(=O)OC1C=CC2(OC(C(CC)C(=O)C(C)C(O)C(C)C3OC(C(CC)C(=O)O)C(C)CC3C)C(C)CC2C)OC12CCC(C)(C1CCC(O)(CC)C(C)O1)O2 (stereo not drawn)", "observed measurement": 0.79}
{"molecule": "CCC(C(=O)O)C1OC(C(C)C(O)C(C)C(=O)C(CC)C2OC3(C=CC(OC(C)=O)C4(CCC(C)(C5CCC(O)(CC)C(C)O5)O4)O3)C(C)CC2C)C(C)CC1C (stereo not drawn)", "observed measurement": 0.76}
{"molecule": "CCCCCC(=O)OC1C=CC2(OC(C(CC)C(=O)C(C)C(O)C(C)C3OC(C(CC)C(=O)O)C(C)CC3C)C(C)CC2C)OC12CCC(C)(C1CCC(O)(CC)C(C)O1)O2 (stereo not drawn)", "observed measurement": 0.97}

Data provenance is patent US4035481A.
